Parameter IC50, tested on MAPKAPK2 (Homo sapiens, UniProt P49137), listed per item.
Sequence (P49137 whole entry): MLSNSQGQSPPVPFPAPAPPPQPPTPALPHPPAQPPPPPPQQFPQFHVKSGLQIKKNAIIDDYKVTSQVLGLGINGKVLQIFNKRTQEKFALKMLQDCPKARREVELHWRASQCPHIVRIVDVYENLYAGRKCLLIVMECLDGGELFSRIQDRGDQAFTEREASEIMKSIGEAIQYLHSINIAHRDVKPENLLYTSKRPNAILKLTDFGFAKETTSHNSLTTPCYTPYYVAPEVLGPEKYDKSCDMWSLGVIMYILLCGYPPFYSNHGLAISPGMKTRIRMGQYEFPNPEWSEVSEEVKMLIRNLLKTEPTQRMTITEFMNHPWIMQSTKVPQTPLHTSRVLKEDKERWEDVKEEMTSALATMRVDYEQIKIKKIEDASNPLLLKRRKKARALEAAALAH

> print(dat)
                                   compound  reading
1  COc1cc(N2CCC(N3CCN(C)CC3)CC2)ccc1Nc1ncc(Cl)c(Nc2ccccc2P(C)(C)=O)n1 [Brigatinib, reference compound]  > 10 µM

Exercise: Request - read-out IC50 | tested on MAPKAPK2 (Homo sapiens, UniProt P49137) | compound COc1cc(N2CCC3(CCN(C)CC3)CC2)ccc1Nc1ncc(Cl)c(Nc2ccccc2P(C)(C)=O)n1 [Iruplinalkib]
Solution: > 10 µM

* * *

# System: P-gp/BCRP/MRP2
# experimental protocol: ABC efflux transporter substrate investigation on Caco-2 cells
# settings: human, Caco-2, with Elacridar 10 µM
parameter: efflux ratio at 0.5 µM
# answer = number (no unit)

Exercise: # lookup: efflux ratio at 0.5 µM of `COc1cc(N2CCC3(CCN(C)CC3)CC2)ccc1Nc1ncc(Cl)c(Nc2ccccc2P(C)(C)=O)n1`
Solution: 2.81

* * *

# experimental target: P-gp (Homo sapiens, UniProt P08183)
# Construct: endogenous in cells; host or cells: Caco-2
# Sequence (P08183 whole entry): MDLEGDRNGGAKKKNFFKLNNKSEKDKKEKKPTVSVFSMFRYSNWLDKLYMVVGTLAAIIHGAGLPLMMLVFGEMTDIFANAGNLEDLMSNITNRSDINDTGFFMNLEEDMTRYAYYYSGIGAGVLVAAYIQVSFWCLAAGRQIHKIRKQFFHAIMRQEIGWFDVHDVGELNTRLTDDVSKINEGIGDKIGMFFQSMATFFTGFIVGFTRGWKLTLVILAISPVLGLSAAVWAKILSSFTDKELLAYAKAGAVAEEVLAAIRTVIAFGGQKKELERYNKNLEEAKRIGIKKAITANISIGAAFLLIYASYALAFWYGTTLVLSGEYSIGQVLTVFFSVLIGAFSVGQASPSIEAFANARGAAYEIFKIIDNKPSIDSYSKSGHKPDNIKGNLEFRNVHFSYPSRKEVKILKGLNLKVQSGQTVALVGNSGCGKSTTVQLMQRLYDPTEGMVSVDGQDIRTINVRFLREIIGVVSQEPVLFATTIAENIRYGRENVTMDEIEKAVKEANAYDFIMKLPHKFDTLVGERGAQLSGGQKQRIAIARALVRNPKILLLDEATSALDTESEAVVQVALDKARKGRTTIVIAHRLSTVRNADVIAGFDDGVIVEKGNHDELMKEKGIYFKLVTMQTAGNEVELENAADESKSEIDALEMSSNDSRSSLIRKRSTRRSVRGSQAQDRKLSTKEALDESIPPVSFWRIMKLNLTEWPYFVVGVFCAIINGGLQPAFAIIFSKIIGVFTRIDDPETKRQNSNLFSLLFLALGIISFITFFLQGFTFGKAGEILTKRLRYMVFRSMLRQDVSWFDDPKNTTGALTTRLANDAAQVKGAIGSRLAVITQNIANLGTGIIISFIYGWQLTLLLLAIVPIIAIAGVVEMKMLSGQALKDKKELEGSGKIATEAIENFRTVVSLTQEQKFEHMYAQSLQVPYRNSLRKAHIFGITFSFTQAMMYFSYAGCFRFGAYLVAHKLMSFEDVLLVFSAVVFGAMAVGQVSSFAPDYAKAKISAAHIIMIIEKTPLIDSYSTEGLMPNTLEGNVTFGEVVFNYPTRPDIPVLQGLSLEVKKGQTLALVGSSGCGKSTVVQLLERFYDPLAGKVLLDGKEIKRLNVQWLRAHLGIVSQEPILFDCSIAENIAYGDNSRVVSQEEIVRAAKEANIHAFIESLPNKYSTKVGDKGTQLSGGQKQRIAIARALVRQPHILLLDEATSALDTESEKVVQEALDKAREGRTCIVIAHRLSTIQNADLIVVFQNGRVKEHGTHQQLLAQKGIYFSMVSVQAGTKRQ
# experimental protocol: ABC efflux transporter inhibitor test on Caco-2 cells (digoxin efflux)
# Assay type: in vitro ADME
# settings: human, Caco-2 cells, probe digoxin (5 µM); read-out: Exhaust inhibition rate (%)
parameter: inhibition at 3 μM (%)
Answer with a number only, understood to be in %.

Exercise: # lookup: inhibition at 3 μM of COc1cc(N2CCC3(CCN(C)CC3)CC2)ccc1Nc1ncc(Cl)c(Nc2ccccc2P(C)(C)=O)n1 [Iruplinalkib]
Solution: -19.1

* * *

# Tested on: OAT1
# experimental protocol: Uptake inhibitor investigation in HEK293 cells expressing transporter
# Format: in vitro ADME
# settings: human, HEK293 cells expressing OAT1, probe ATV, 1 μM; read-out: Inhibition rate
parameter: inhibition at 5 μM
Respond with the figure and its unit, in that order.

Exercise: Request - read-out inhibition at 5 μM | tested on OAT1 | molecule `COc1cc(N2CCC3(CCN(C)CC3)CC2)ccc1Nc1ncc(Cl)c(Nc2ccccc2P(C)(C)=O)n1`
Solution: 22.5%

* * *

# experimental target: P-gp (Homo sapiens, UniProt P08183)
# Construct: endogenous in cells; host or cells: Caco-2
# experimental protocol: ABC efflux transporter inhibitor test on Caco-2 cells (digoxin efflux)
# Assay type: in vitro ADME
# settings: human, Caco-2 cells, probe digoxin (5 µM); read-out: Exhaust inhibition rate (%)
parameter: inhibition at 10 µM (%)
Answer with a number only, understood to be in %.

Exercise: # lookup: inhibition at 10 µM of `COc1cc(N2CCC3(CCN(C)CC3)CC2)ccc1Nc1ncc(Cl)c(Nc2ccccc2P(C)(C)=O)n1`
Solution: 89.8

* * *

# experimental target: BSEP (Homo sapiens, UniProt O95342)
# Construct: host or cells: membrane vesicles ('Membrane capsule'), BSEP versus NC control, with ATP or AMP
# Sequence (O95342 whole entry): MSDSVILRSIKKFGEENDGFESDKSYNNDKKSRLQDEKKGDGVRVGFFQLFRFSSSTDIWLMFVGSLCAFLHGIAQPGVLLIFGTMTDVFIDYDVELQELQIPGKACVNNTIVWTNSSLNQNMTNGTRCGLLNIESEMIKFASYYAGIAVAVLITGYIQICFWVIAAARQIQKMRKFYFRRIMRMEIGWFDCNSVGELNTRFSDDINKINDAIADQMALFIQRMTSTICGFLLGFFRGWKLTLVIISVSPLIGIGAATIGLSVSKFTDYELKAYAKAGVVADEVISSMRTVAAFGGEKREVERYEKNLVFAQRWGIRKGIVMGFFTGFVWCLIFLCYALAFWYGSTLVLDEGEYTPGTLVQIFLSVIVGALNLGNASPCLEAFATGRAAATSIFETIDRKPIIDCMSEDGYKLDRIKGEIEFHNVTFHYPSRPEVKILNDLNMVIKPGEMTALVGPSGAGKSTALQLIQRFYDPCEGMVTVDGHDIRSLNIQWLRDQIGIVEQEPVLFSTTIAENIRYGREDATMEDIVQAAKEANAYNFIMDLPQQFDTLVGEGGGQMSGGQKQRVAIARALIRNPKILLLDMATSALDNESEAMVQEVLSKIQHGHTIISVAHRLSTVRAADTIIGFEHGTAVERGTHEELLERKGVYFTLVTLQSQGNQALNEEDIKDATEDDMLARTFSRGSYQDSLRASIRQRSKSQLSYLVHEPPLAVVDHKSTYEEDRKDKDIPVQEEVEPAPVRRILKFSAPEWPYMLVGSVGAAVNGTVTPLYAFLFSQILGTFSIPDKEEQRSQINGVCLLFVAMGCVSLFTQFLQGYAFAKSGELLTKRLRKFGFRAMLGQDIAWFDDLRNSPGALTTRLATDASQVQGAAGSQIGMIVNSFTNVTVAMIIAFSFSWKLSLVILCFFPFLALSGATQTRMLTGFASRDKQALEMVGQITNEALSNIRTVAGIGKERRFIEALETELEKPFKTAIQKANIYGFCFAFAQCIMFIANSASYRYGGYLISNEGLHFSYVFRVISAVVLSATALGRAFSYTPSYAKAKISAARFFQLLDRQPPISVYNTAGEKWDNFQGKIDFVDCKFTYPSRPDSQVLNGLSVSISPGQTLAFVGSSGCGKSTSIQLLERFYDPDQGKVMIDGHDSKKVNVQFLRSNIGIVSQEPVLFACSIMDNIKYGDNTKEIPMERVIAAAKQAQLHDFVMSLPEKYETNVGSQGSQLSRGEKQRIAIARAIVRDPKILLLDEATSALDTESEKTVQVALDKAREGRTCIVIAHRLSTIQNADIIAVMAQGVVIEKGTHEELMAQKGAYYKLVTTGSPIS
# experimental protocol: BSEP inhibitor investigation
# Assay type: in vitro ADME
# settings: BSEP membrane capsules (membrane vesicles), ATP vs AMP, probe TCA; BSEP; substrate TCA 10 μM; inhibitor 30 μM; read-out: Inhibition rate
parameter: inhibition at 30 μM

Exercise: # lookup: inhibition at 30 μM of COc1cc(N2CCC3(CCN(C)CC3)CC2)ccc1Nc1ncc(Cl)c(Nc2ccccc2P(C)(C)=O)n1 [Iruplinalkib]
Solution: -0.09%
